- Tested on: Escherichia coli
- experiment_description: Selectivity index, ratio of MIC for against extended-spectrum beta-lactamase producing Escherichia coli isolate 209285 to MIC for extended-spectrum beta-lactamase producing Escherichia coli isolate 209285 in presence of BPL
- Assay type: functional
Selectivity Index for assorted compounds
Just the number, please.

* CC(C)C(O/N=C(\C(=O)N[C@@H]1C(=O)N(S(=O)(=O)O)[C@@H]1CSc1nc2ccccc2o1)c1csc(N)n1)c1cc(=O)c(O)cn1O (stereo partly specified) | 2
* CC(C)C(O/N=C(\C(=O)N[C@@H]1C(=O)N(S(=O)(=O)O)[C@@H]1COS(=O)(=O)O)c1csc(N)n1)c1cc(=O)c(O)cn1O (stereo partly specified) | 2
* CC(=O)OC[C@@H]1[C@H](NC(=O)/C(=N\OC(c2cc(=O)c(O)cn2O)C(C)C)c2csc(N)n2)C(=O)N1S(=O)(=O)O (stereo partly specified) | 2
* CC(C)C(O/N=C(\C(=O)N[C@@H]1C(=O)N(S(=O)(=O)O)[C@@H]1CSc1nc(=O)c(O)nn1C)c1csc(N)n1)c1cc(=O)c(O)cn1O (stereo partly specified) | 1
* CC(C)C(O/N=C(\C(=O)NC1C(=O)N(S(=O)(=O)O)C12CCCCC2)c1csc(N)n1)c1cc(=O)c(O)cn1O (stereo unspecified) | 8
* CC(C)C(O/N=C(\C(=O)N[C@@H]1C(=O)N(S(=O)(=O)O)[C@@H]1Cn1cc(COCc2cc(=O)c(O)cn2O)nn1)c1csc(N)n1)c1cc(=O)c(O)cn1O (stereo partly specified) | 2
* CC(C)C(O/N=C(\C(=O)N[C@@H]1C(=O)N(S(=O)(=O)O)[C@@H]1CN1CCNC1=O)c1csc(N)n1)c1cc(=O)c(O)cn1O (stereo partly specified) | 4
* CC(C)C(O/N=C(\C(=O)NC1C(=O)N(S(=O)(=O)O)C12CCC2)c1csc(N)n1)c1cc(=O)c(O)cn1O (stereo unspecified) | 2
* CC(C)C(O/N=C(\C(=O)N[C@@H]1C(=O)N(S(=O)(=O)O)[C@@H]1COC(=O)C1CN(C(=O)c2ccc(O)c(O)c2Cl)C1)c1csc(N)n1)c1cc(=O)c(O)cn1O (stereo partly specified) | 2
* CC(C)C(O/N=C(\C(=O)N[C@@H]1C(=O)N(S(=O)(=O)O)[C@@H]1CN1CCNCC1)c1csc(N)n1)c1cc(=O)c(O)cn1O (stereo partly specified) | 4

Input: Give Selectivity Index (Escherichia coli) of the following compound: CC(C)C(O/N=C(\C(=O)N[C@@H]1C(=O)N(S(=O)(=O)O)[C@@H]1COC(N)=O)c1csc(N)n1)c1cc(=O)c(O)cn1O (stereo partly specified)
Output: 4

Input: // repeat for CC(C)C(O/N=C(\C(=O)N[C@@H]1C(=O)N(S(=O)(=O)O)C12CCCC2)c1csc(N)n1)c1cc(=O)c(O)cn1O (stereo partly specified) and report
Output: 1

Input: // repeat for Cc1csc(SC[C@@H]2[C@H](NC(=O)/C(=N\OC(c3cc(=O)c(O)cn3O)C(C)C)c3csc(N)n3)C(=O)N2S(=O)(=O)O)n1 (stereo partly specified) and report
Output: 2

Input: // repeat for CC(C)C(O/N=C(\C(=O)N[C@@H]1C(=O)N(S(=O)(=O)O)[C@@H]1COC(=O)c1ccc(O)c(O)c1Cl)c1csc(N)n1)c1cc(=O)c(O)cn1O (stereo partly specified) and report
Output: 1

Input: // repeat for CC(C)C(O/N=C(\C(=O)N[C@@H]1C(=O)N(S(=O)(=O)O)[C@@H]1CCl)c1csc(N)n1)c1cc(=O)c(O)cn1O (stereo partly specified) and report
Output: 1
